Entry source: ChEMBL document CHEMBL5506039

- test-name: Cytotoxicity against mouse J774.A1 cells assessed as cell survival at 0.1 uM measured after 96 hrs by SYBR Green II dye based analysis relative to control
- Format: toxicity
- settings: read-out: Survival
Listing: viability at 96 h, 0.1 µM of selected compounds
Quick reminder: number only, in %, skip the unit.

C[C@H]1CC[C@@H](N/C=C2\N=C(c3ccc[nH]3)C=C2Oc2ccc(OC(F)(F)F)cc2)CC1; 112

// COC1=CC(c2ccc[nH]2)=N/C1=C\Nc1ccc(Cl)cc1 : viability at 96 h, 0.1 µM value = 95.4

// CC1=CC(c2ccc[nH]2)=N/C1=C\NC1CCCCCC1 : viability at 96 h, 0.1 µM value = 88.4

// COC1=CC(c2ccc[nH]2)=N/C1=C\Nc1ccc(Oc2ccc(C)cc2)cc1 : viability at 96 h, 0.1 µM value = 69.8

// CC1=C/C(=C/NC2CCCCCCC2)N=C1c1ccc[nH]1 : viability at 96 h, 0.1 µM value = 150

// COC1=CC(c2ccc[nH]2)=N/C1=C\Nc1ccc(Cl)c(OC)c1.Cl : viability at 96 h, 0.1 µM value = 57.3

// Cc1ccc(Oc2ccc(N/C=C3\N=C(c4ccc[nH]4)C4=C3CCCC4)cc2)cc1.Cl : viability at 96 h, 0.1 µM value = 58.2

// CCc1ccc(C2=N/C(=C\NC3CCCCCCC3)C(C)=C2C)[nH]1.Cl : viability at 96 h, 0.1 µM value = 53.6

// COc1ccc(Oc2ccc(N/C=C3\N=C(c4ccc[nH]4)C(C)=C3C)cc2)cc1 : viability at 96 h, 0.1 µM value = 65.9

// Clc1ccc(N/C=C2\N=C(c3ccc[nH]3)C3=C2CCCC3)cc1 : viability at 96 h, 0.1 µM value = 67.2

// CCC1=C(CC)/C(=C/NC2CCCCCC2)N=C1c1ccc[nH]1 : viability at 96 h, 0.1 µM value = 26.7
